# assayed.system: HPK1 (Homo sapiens)
# Sequence (Q92918 whole entry): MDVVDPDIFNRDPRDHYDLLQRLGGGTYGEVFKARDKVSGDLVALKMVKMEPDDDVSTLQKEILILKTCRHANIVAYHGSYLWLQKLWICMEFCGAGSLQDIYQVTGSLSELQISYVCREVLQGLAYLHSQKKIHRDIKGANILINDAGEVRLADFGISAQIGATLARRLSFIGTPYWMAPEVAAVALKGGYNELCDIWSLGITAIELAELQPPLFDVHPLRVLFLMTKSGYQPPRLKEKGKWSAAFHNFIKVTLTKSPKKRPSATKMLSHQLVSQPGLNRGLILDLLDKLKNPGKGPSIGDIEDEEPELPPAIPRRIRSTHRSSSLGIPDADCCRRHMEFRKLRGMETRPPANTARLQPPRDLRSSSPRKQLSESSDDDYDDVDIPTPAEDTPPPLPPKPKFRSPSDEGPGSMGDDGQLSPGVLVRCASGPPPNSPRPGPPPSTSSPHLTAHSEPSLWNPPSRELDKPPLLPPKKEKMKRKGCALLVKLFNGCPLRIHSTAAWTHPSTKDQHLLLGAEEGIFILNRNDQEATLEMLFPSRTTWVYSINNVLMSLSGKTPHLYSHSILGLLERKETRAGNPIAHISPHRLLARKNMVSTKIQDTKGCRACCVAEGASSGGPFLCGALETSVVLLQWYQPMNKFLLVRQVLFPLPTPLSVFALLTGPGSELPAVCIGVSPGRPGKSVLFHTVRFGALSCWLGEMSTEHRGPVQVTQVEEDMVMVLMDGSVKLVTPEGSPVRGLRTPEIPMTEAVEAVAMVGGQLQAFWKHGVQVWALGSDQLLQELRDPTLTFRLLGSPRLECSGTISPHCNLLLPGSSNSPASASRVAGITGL
# assay.summary: SLP76 phosphorylation assay (intracellular HPK1 inhibitory activity, p-SLP76 Ser376 sandwich ELISA)
# condition: p-SLP76 IC50(nM), Jurkat, Clone E6-1 cells; 1 h compound pre-incubation, anti-CD3 beads stimulation 20 min; SLP76 phosphorylation at S376
metric: IC50 (nM)

Cc1c[nH]c2ncc(-c3cc4c(c([C@@H]5CCCN5)c3)CN(C(=O)c3cnn(C5CC5)c3)CC4)cc12 [Compound Z319]; 111

[A] CCN1Cc2c(cc(-c3cnc4[nH]cc(C)c4c3)cc2[C@@H]2CCCN2)CC1=O [Compound Z138]
[B] Cc1c[nH]c2ncc(-c3cc4c(c(CN5CCCC5)c3)COCC4)cc12 [Compound Z109]
## Input Quick one: lower IC50, A or B ? State the label of the item chosen.
## Output A

[a] N#CCc1c[nH]c2ncc(-c3cc4c(c([C@@H]5CCCN5)c3)COCC4)cc12 (single isomer, unassigned) [Compound Z101-2]
[b] Cc1nn(C)cc1C(=O)N1CCc2cc(-c3cnc4[nH]cc(C)c4c3)cc([C@@H]3CCCN3)c2C1 [Compound Z282]
[c] Nc1ncc(-c2cc3c(c([C@@H]4CCCN4)c2)COCC3)cc1-c1nncs1 [Compound Z239]
[d] CC(=O)N1CCc2c(cc(-c3cnc4[nH]cc(C)c4c3)cc2[C@@H]2CCCN2)C1 [Compound Z139]
## Input Provide the items ranked by increasing IC50. Rank the items, then write their labels in that order.
## Output a, d, c, b
(a: 111 nM, d: 159 nM, c: 239 nM, b: 471 nM)

[a] Cc1c[nH]c2ncc(-c3cc4c(c([C@@H]5CCCN5)c3)CCN(CC(F)(F)F)C4)cc12 [Compound Z308]
[b] Cc1c[nH]c2ncc(-c3cc4c(c([C@@H]5CCCN5)c3)CN(C(=O)C(C)(C)O)CC4)cc12 [Compound Z216]
## Input Quick one: lower IC50, a or b ? State the label of the item chosen.
## Output b
(b: 108 nM, a: 441 nM)
